- System: NCI-H460
- procedure-details: NCI tumour cell line growth inhibition, 48 h
The source made the active and inactive calls. Rule as the data show it: active = GI50 up to about 1.1 µM and inactive = higher.
readout-kind: GI50

Previously resolved entries follow.
INSERT INTO measurements (compound, endpoint_result) VALUES
  ('C/C(=N/NC(N)=S)c1ccc2ccccc2c1', '24.2 µM (inactive)'),
  ('CCOC(OCC)C(CCc1ccccc1)c1c(N)nc(N)[nH]c1=O (stereo unspecified)', '56.8 µM (inactive)'),
  ('COC(=O)/C=C/C(=O)Nc1cc(Cl)c(Cl)cc1CC(=O)N(C)[C@H]1CCCC[C@@H]1N1CCCC1', '17.3 µM (inactive)');

Give recorded GI50 with NCI-H460 for the following compound: N#Cc1[nH]c(=O)n(-c2ccccc2)c1N
> 10 µM (inactive)

// same read-out, input: COc1ccc2cc(NC(=O)N/N=C\c3ccc([N+](=O)[O-])cc3)ccc2c1
29.4 µM (inactive)

// same read-out, input: COc1cc(C[S+]([O-])c2ccc(O)cc2)cc(OC)c1OC (stereo unspecified)
> 100 µM (inactive)

What do you get for CC(=O)O/C=C\OC1CCCC1 ?
> 100 µM (inactive)

// query: CCOC(=O)C1=C(C)N(NC(=O)Nc2ccccc2)C2(N)N(NC(=O)Nc3ccccc3)C(C)=C(C(=O)OCC)C12C#N (stereo unspecified)
17.8 µM (inactive)

----------
# GI50 per entry
- System: NCI-H23
- procedure-details: NCI tumour cell line growth inhibition, 48 h
Activity calls are given as the source filed them. No stated cut-off is given here; in the data, active = GI50 up to about 1.1 µM and inactive = higher.

Example entries and their recorded answers appear below.
INSERT INTO results (compound, readout_kind, endpoint_result) VALUES
  ('COc1cc(C2c3cc4c(cc3[C@@H](Nc3cccc(O)c3)C3COC(=O)[C@H]23)OCO4)cc(OC)c1O (some centres not stated)', 'GI50', '1.05 µM (active)'),
  ('O/N=N\c1nc(-c2cccnc2)nc2ccccc12', 'GI50', '> 100 µM (inactive)');

Next, consider the following compound.
Can you share its GI50? I mean this compound: CC(C)(C)S(=O)OC12CC3CC(CC(C3)C1)C2 (configuration not stated)
> 100 µM (inactive)

----------
- Test system: SF-295
- procedure-details: NCI tumour cell line growth inhibition, 48 h
Where a name gives a salt, the structure may show the parent alone. Calls of active or inactive are those of the source. No stated cut-off is given here; in the data, active = GI50 up to about 1.1 µM and inactive = higher.
readout-kind: GI50

INSERT INTO measurements (molecule, endpoint_result) VALUES
  ('COC(=O)C1(Cc2ccccc2)Cc2c(C)ccc(C)c2C1=O (centres undefined)', '31.8 µM (inactive)'),
  ('COc1ccc2cc(NC(=O)N/N=C\c3ccc([N+](=O)[O-])cc3)ccc2c1', '25.9 µM (inactive)'),
  ('Cc1cc(N(CCC#N)CCC#N)ccc1/C=C1N=C(/C=C\c2ccccc2)OC\1=O', '> 100 µM (inactive)'),
  ('COc1ccc(Cc2nccc3cc(OC)c(OC)cc23)cc1OC [PAPAVERINE HYDROCHLORIDE]', '84.9 µM (inactive)');

Which GI50 reading was recorded for the molecule COc1cc(C2C(Cl)C(=O)N2c2c(C)n(C)n(-c3ccccc3)c2=O)ccc1O (centres undefined) ?
22.2 µM (inactive)

// next record CCOC(OCC)C(CCc1ccccc1)c1c(N)nc(N)[nH]c1=O (centres undefined)
53.1 µM (inactive)

Param item: O=C(N/N=C(COc1ccc([N+](=O)[O-])cc1)\N=C\c1ccncc1)c1ccncc1
> 100 µM (inactive)

What about this molecule? CC(C)(CN1CCOCC1)C(=O)/C=C/c1ccc(/C=C/C(=O)C(C)(C)CN2CCOCC2)cc1
2.21 µM (inactive)

Also need CC(=O)NC1C(OCc2ccccc2)OC(CO)C(O)C1OC(C)C(=O)NC(C(=O)NC(CCC(=O)NCCCCNc1c2ccccc2nc2cccc([N+](=O)[O-])c12)C(N)=O)C(C)C (centres undefined) , thanks.
4.99 µM (inactive)
